test: collision cross section (TIMS, N2 drift gas) of the primary ion; higher = larger gas-phase ion size; conditions: ionization mode: ESI+; ion species: [M+H]+
measure.name: collision cross section (Å²)
The figure you give is taken to be in Å²; do not add the unit.

Worked cases, answers included:
[[record]]
compound = "CCCCCCOc1ccc(-c2nc(-c3ccccc3)nc(-c3ccccc3)n2)c(O)c1"
reported = 221.42

[[record]]
compound = "COCCOCCOCCOCCOC"
reported = 152.39

[[record]]
compound = "CCCCCCCCCCCCN(C)C"
reported = 169.68

[[record]]
compound = "O=P(OC(CCl)CCl)(OC(CCl)CCl)OC(CCl)CCl"
reported = 177.62


Let us examine a further case.
Task: Check the records and state collision cross section for NC(=O)/N=C1\SCCN1Cc1ccc(Cl)nc1 [Thiacloprid amide]
Result: 159.22

====

assay: reversed-phase LC retention time (C18, 15 min MeOH gradient); higher = more hydrophobic / later elution; conditions: ionization mode: ESI+; ion species: [M+H]+
// reported reversed-phase LC retention time per item
The figure you give is taken to be in min; do not add the unit.

Worked cases, answers included:
[[record]]
compound = "CC1CCN(CCCC(=O)c2ccc(F)cc2)CC1 [Melperon]"
reported = 9.83

[[record]]
compound = "CC(=O)N(CC(O)CO)c1c(I)c(C(=O)NCC(O)CO)c(I)c(C(=O)NCC(O)CO)c1I (centres undefined) [Iohexol]"
reported = 5.4


Task: Check the records and state reversed-phase LC retention time for CCOC1Oc2ccc(OS(C)(=O)=O)cc2C1(C)C (centres undefined) [Ethofumesate]
Result: 13.8

Task: Check the records and state reversed-phase LC retention time for O=c1[nH]c2c(c(=O)n1C1CCCCC1)CCC2 [Lenacil]
Result: 12.8

====

assay: reversed-phase LC retention time (C18, 15 min MeOH gradient); higher = more hydrophobic / later elution; conditions: ionization mode: ESI+; ion species: [M+H]+
measure.name: reversed-phase LC retention time (min)
The figure you give is taken to be in min; do not add the unit.

[[record]]
compound = "CO/N=C(/C(=O)O)c1ccccc1CO/N=C(/C(=O)O)c1cccc(C(F)(F)F)c1"
measure_name = "reversed-phase LC retention time"
reported = 13.1

[[record]]
compound = "Cc1cc(O)cc(C)c1S(C)=O (centres undefined) [Methiocarb-sulfoxide phenol]"
measure_name = "reversed-phase LC retention time"
reported = 8.4

[[record]]
compound = "CCNc1nc(NCC)[nH]c(=O)n1 [Simazine 2-Hydroxy]"
measure_name = "reversed-phase LC retention time"
reported = 7.22


Task: Check the records and state reversed-phase LC retention time for "CCCOC(=O)NCCCN(C)C"
Result: 6.24

Task: Check the records and state reversed-phase LC retention time for NC(N)=NC(=O)c1nc(Cl)c(N)nc1N [Amiloride]
Result: 6.27

Task: Check the records and state reversed-phase LC retention time for "CCC(CC)Nc1c([N+](=O)[O-])cc(C)c(C)c1[N+](=O)[O-]"
Result: 17.1

Task: Check the records and state reversed-phase LC retention time for CCCCN(C=O)CCCC [N,N-Di-n-butylformamide]
Result: 13.5

Task: Check the records and state reversed-phase LC retention time for "NC(=O)Nc1ccc(Cl)c(Cl)c1"
Result: 12.2

Task: Check the records and state reversed-phase LC retention time for "CCNc1nc(Cl)nc(NC(C)C)n1"
Result: 12.8
